Test: in vivo
Parameters: species or system swine
Conditions: both sexes, pig, 1.5 mg/kg
TEST READOUT: AUC(0-inf)
Please append the unit to your numeric answer.

Inquiry: What value of AUC(0-inf) has been reported for the following molecule? CC1(C)OC(=O)C(OCC2CC2)=C1c1ccc(S(C)(=O)=O)cc1
Reply text: 4620 ng·h/mL

----------
Experiment: Firocoxib pharmacokinetics in sows following IM administration (Example 2)
Format: in vivo, swine
Settings: female, Yorkshire×Landrace, pig, plasma, im, 1 mg/kg, sows, 1.0 mg/kg IM, mean; read-out: AUC0-24h
TEST READOUT: AUC(0-t) (ng·h/mL)
One number for each entry, in ng·h/mL.

Inquiry: What value of AUC(0-t) has been reported for the following molecule? CC1(C)OC(=O)C(OCC2CC2)=C1c1ccc(S(C)(=O)=O)cc1
Reply text: 2670
